assay: Assay C: permeability in CACO-2 cells; assay type: in vitro ADME; details: human; compounds of the invention; Caco-2, apical to basolateral, pH 7.2
Tag: MET if measured Papp A→B at 2 h is not below 20 ×10⁻⁶ cm/s, NOT MET if it is.

Prompt: Does the reported Papp A→B at 2 h for Cn1cnnc1C1(F)CCN(c2c(C#N)cc(C(F)(F)F)nc2-c2cnc3nn(C(C)(C)C)c(Cl)c3c2)CC1 [Example 3] fall at or above the 20 ×10⁻⁶ cm/s mark?
Response: MET

Prompt: Is the recorded value of Papp A→B at 2 h equal to or greater than 20 ×10⁻⁶ cm/s for this molecule? Cn1cnnc1C1(F)CCN(c2c(C#N)ccnc2-c2cnc3nn(C(F)(F)F)nc3c2)CC1 [Example 18]
Response: MET

Prompt: Textbook exercise: given the entry Cn1cnnc1C1(F)CCN(c2c(C#N)cc(C3CC3)nc2-c2ccc(F)nc2)CC1 [Example 31] , state whether its Papp A→B at 2 h is greater than or equal to 20 ×10⁻⁶ cm/s.
Response: MET

Prompt: Check this molecule for Papp A→B at 2 h at or above 20 ×10⁻⁶ cm/s: Cn1cnnc1C1(F)CCN(c2c(C#N)ccnc2-c2cnc(F)cc2Cl)CC1 [Example 22]
Response: MET

Prompt: Dear colleague, could you confirm whether CC(C)n1nc2ncc(-c3nc(C(F)(F)F)cc(C#N)c3N3CCC(F)(c4nncn4C)CC3)cc2c1F [Example 7] has Papp A→B at 2 h at or above 20 ×10⁻⁶ cm/s?
Response: NOT MET

Prompt: Is it the case that Cc1cnc(-c2ccc(F)nc2)c(N2CCC(F)(c3nncn3C)CC2)c1C#N [Example 41] has Papp A→B at 2 h reaching or exceeding 20 ×10⁻⁶ cm/s?
Response: MET

Prompt: In plain terms: is recorded Papp A→B at 2 h at least 20 ×10⁻⁶ cm/s for Cn1cnnc1C1(F)CCN(c2c(C#N)ccnc2-c2cnc3nn(C(C)(C)C)nc3c2)CC1 [Example 17] ?
Response: NOT MET

Prompt: Could you please find out whether Cn1cnnc1C1(F)CCN(c2c(-c3ccc(F)nc3)ncc(Cl)c2C#N)CC1 [Example 39] has Papp A→B at 2 h that meets 20 ×10⁻⁶ cm/s or exceeds it?
Response: NOT MET

Prompt: # bool: Papp A→B at 2 h of Cn1cnnc1C1(F)CCN(c2c(C#N)cc(Cl)nc2-c2ccc(F)nc2)CC1 [Example 37] >= 20 ×10⁻⁶ cm/s
Response: MET

Prompt: Say whether Cn1cnnc1C1(F)CCN(c2c(C#N)cc(C(F)(F)F)nc2-c2cnc3nn(C(F)(F)F)cc3c2)CC1 [Example 5] shows Papp A→B at 2 h of 20 ×10⁻⁶ cm/s or more.
Response: NOT MET

Prompt: Evaluate Cc1cc(F)ncc1-c1nccc(C#N)c1N1CCC(F)(c2nncn2C)CC1 [Example 21] : Papp A→B at 2 h at minimum 20 ×10⁻⁶ cm/s?
Response: NOT MET

Prompt: Tell me whether Papp A→B at 2 h is at least 20 ×10⁻⁶ cm/s here: Cn1cnnc1C1(F)CCN(c2c(C#N)cc(C(F)(F)F)nc2-c2cnc3nc(C(C)(C)C)nn3c2)CC1 [Example 11]
Response: NOT MET

Prompt: Evaluate Cn1cnnc1C1(F)CCN(c2c(C#N)cc(Cl)nc2-c2cnc3nn(C(C)(C)C)cc3c2)CC1 [Example 36] : Papp A→B at 2 h at minimum 20 ×10⁻⁶ cm/s?
Response: NOT MET

Prompt: Does the molecule Cn1cnnc1C1(F)CCN(c2c(C#N)ccnc2-c2cnc3nn(C(C)(C)C)c(Cl)c3c2)CC1 [Example 14] have recorded Papp A→B at 2 h that is 20 ×10⁻⁶ cm/s or more?
Response: NOT MET

Prompt: Please indicate if the recorded Papp A→B at 2 h for Cn1cnnc1C1(F)CCN(c2c(C#N)cc(C(C)(F)F)nc2-c2ccc(F)nc2)CC1 [Example 34] meets or exceeds 20 ×10⁻⁶ cm/s.
Response: MET

----------
Documented IC50 across a set of molecules
tested on: SIRPα signalling induced by Raji cells; assay: Assay B: SIRPα signalling assay using Raji cells; assay type: cell-based; details: Homo sapiens; compounds of the invention; Raji cells 48 h, Jurkat PathHunter SIRPαV1 reporter cells 5 h; read-out: Inhibition of SIRPα signalling induced by Raji cells: IC50
Output spec: scalar in nM, unitless text.

Examples from the recorded data:
Cn1cnnc1C1(F)CCN(c2c(C#N)ccnc2-c2cnc3nn(C(C)(C)C)c(Cl)c3c2)CC1 ... 21
Cc1cc(C#N)c(N2CCC(F)(c3nncn3C)CC2)c(-c2cnc3nn(C(C)(C)C)c(Cl)c3c2)n1 ... 6
Cn1cnnc1C1(F)CCN(c2c(C#N)cc(C(F)(F)F)nc2-c2cnc3nn(C(F)(F)F)cc3c2)CC1 ... 41

Now, please, on to the next molecule.
Prompt: Notebook entry, SIRPα signalling induced by Raji cells assay: IC50 of `Cn1cnnc1C1(F)CCN(c2c(C#N)cc(C(F)(F)F)nc2-c2cnc3nn(C(C)(C)C)c(Cl)c3c2)CC1` = ?
Response: 14

----------
List of IC50 tested on QPCTL (Homo sapiens).
Sequence (Q9NXS2 whole entry): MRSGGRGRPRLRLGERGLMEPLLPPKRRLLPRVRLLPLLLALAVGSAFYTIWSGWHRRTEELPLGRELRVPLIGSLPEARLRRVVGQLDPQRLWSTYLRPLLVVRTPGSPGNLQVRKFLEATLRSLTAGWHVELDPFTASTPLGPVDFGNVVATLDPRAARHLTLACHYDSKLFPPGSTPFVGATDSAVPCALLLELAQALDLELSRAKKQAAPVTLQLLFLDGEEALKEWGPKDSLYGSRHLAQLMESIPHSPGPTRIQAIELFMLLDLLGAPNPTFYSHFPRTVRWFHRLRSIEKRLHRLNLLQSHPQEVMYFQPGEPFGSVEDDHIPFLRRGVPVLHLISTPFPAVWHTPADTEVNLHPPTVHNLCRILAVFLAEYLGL
Field: numeric (nM). Do not append units.

Cn1cnnc1C1(F)CCN(c2c(C#N)cc(C(F)(F)F)nc2-c2cnc3nn(C(C)(C)C)c(C(F)(F)F)c3c2)CC1 ... 9

We now examine a further compound.
Prompt: Under QPCTL (Homo sapiens): IC50 value of `Cn1cnnc1C1(F)CCN(c2c(C#N)cc(C(F)(F)F)nc2-c2cnc3nc(C(F)(F)F)nn3c2)CC1` ?
Response: 24

----------
experiment: Assay C: permeability in CACO-2 cells; type: in vitro ADME; details: human, pH 7.2; compounds of the invention; Caco-2, permeability B-A / permeability A-B
parameter.measured: efflux ratio at 2 h

The following compounds have reported results that may help.
Cc1cc(C#N)c(N2CCC(F)(c3nncn3C)CC2)c(-c2cnc3nn(C(C)(C)C)c(F)c3c2)n1 ... 9.9
Cn1cnnc1C1(F)CCN(c2c(C#N)cc(C(C)(F)F)nc2-c2ccc(F)nc2)CC1 ... 1.7
Cn1cnnc1C1(F)CCN(c2c(C#N)cc(C(F)(F)F)nc2-c2cnc3nn(C(C)(C)C)cc3c2)CC1 ... 6.4

Prompt: Look at this compound and give its reported efflux ratio at 2 h. `Cn1cnnc1C1(F)CCN(c2c(C#N)cc(C(F)F)nc2-c2ccc(F)nc2)CC1`
Response: 3.6

Prompt: Look up efflux ratio at 2 h: `Cn1cnnc1C1(F)CCN(c2c(C#N)ccnc2-c2cnc3nn(C(C)(C)C)nc3c2)CC1`
Response: 13.9

Prompt: Sample `CC(C)n1nc2ncc(-c3nc(C(F)(F)F)cc(C#N)c3N3CCC(F)(c4nncn4C)CC3)cc2c1F` — what was its efflux ratio at 2 h?
Response: 11.9

Prompt: Could you share which efflux ratio at 2 h value was measured for `Cn1cnnc1C1(F)CCN(c2c(C#N)ccnc2-c2cccnc2)CC1` ?
Response: 2.6

Prompt: Report efflux ratio at 2 h for `Cn1cnnc1C1(F)CCN(c2c(C#N)cc(C(C)(F)F)nc2-c2cnc3nn(C(C)(C)C)cc3c2)CC1` please.
Response: 8.2

----------
Recorded below: pIC50, system QPCT (Homo sapiens).
Friendly reminder that pIC50 comes from taking -log10 of the concentration in mol/L.

Would you please look over these solved cases?
Cn1cnnc1C1(F)CCN(c2c(C#N)ccnc2-c2cnc3nn(C(F)(F)F)cc3c2)CC1 ... 9.00
Cn1cnnc1C1(F)CCN(c2c(C#N)cc(C(F)(F)F)nc2-c2cnc3nn(C(F)(F)F)nc3c2)CC1 ... 7.00
Cn1cnnc1C1(F)CCN(c2c(C#N)ccnc2-c2cnc3nn(C(C)(C)C)c(C(F)(F)F)c3c2)CC1 ... 8.52
Cn1cnnc1C1(F)CCN(c2c(C#N)ccnc2-c2cccnc2)CC1 ... 7.21
Cn1cnnc1C1(F)CCN(c2c(C#N)ccnc2-c2cnc(F)cc2Cl)CC1 ... 7.82
Cn1cnnc1C1CCN(c2c(C#N)cc(C(F)(F)F)nc2-c2cnc3nn(C(C)(C)C)c(C(F)(F)F)c3c2)CC1 ... 7.80
Cc1cncc(-c2nccc(C#N)c2N2CCC(F)(c3nncn3C)CC2)c1 ... 7.46
Cc1cc(F)ncc1-c1nccc(C#N)c1N1CCC(F)(c2nncn2C)CC1 ... 8.22

Proceed to the following item.
Prompt: Item `Cn1cnnc1C1(F)CCN(c2c(C#N)ccnc2-c2cnc3nn(C(C)(C)C)nc3c2)CC1` has what recorded pIC50?
Response: 8.70

----------
system: SIRPα signalling induced by Raji cells; test: Assay B: SIRPα signalling assay using Raji cells; type: cell-based; conditions: Homo sapiens; compounds of the invention; Raji cells 48 h, Jurkat PathHunter SIRPαV1 reporter cells 5 h; read-out: Inhibition of SIRPα signalling induced by Raji cells: IC50
parameter.measured: IC50
Remember to quote the unit after the number.

Cn1cnnc1C1(F)CCN(c2c(C#N)ccnc2-n2cnc3nc(C(F)(F)F)ccc32)CC1 ... 0.321 µM

Prompt: Given the entry `Cn1cnnc1C1CCN(c2c(C#N)cc(C(F)(F)F)nc2-c2cnc3nn(C(C)(C)C)c(C(F)(F)F)c3c2)CC1` , what IC50 was observed with SIRPα signalling induced by Raji cells?
Response: 0.054 µM

Prompt: Entry `Cn1cnnc1C1(F)CCN(c2c(C#N)ccnc2-c2cnc3nn(C(F)(F)F)cc3c2)CC1` , system SIRPα signalling induced by Raji cells: what IC50 was measured?
Response: 0.037 µM

Prompt: Which measured IC50 belongs to `Cn1cnnc1C1(F)CCN(c2c(C#N)cc(C3CC3)nc2-c2cnc3nn(C(C)(C)C)c(F)c3c2)CC1` , tested on SIRPα signalling induced by Raji cells?
Response: 0.017 µM

Prompt: Recorded IC50 for `Cn1cnnc1C1(F)CCN(c2c(C#N)cc(C(F)(F)F)nc2-c2cnc(F)cc2Cl)CC1` with SIRPα signalling induced by Raji cells, please?
Response: 0.352 µM

Prompt: What value of IC50 on SIRPα signalling induced by Raji cells does `CC(C)n1nc2ncc(-c3nc(C(F)(F)F)cc(C#N)c3N3CCC(F)(c4nncn4C)CC3)cc2c1F` have?
Response: 0.026 µM

Prompt: What IC50 appears in the records for this compound with SIRPα signalling induced by Raji cells? `Cn1cnnc1C1(F)CCN(c2c(C#N)ccnc2-c2cnc3nn(C(C)(C)C)c(C(F)(F)F)c3c2)CC1`
Response: 0.069 µM

Prompt: Short answer please: IC50, SIRPα signalling induced by Raji cells, entry `Cn1cnnc1C1(F)CCN(c2c(C#N)cc(C(F)(F)F)nc2-c2cnc3nc(C(F)(F)F)nn3c2)CC1`
Response: 0.86 µM
